Below, each entry is listed alongside its reported Population Hoechst High Intensity Objects (%).
- Tested on: Fibroblast
- ASSAY_REMARKS: Multiplex assay against human fibroblast
- Assay type: toxicity, cell-based
- CONDITION_LABEL: 48 h, 10 µM, compound concentration 10 uM, replicate 1
Express the result in % but write the number alone.

Below, 3 compounds whose answers are already recorded.
O=C(Nc1cc(-c2ccccc2)nn1-c1ccccc1F)c1ccc([N+](=O)[O-])cc1    7
Cc1sc2c(c1C)C(c1ccc(Cl)cc1)=N[C@H](CC(=O)OC(C)(C)C)c1nnc(C)n1-2    1
COc1cc2nc(N3CCN(C(=O)COc4c(OC)cccc4C(C)C)CC3)nc(N)c2cc1OC.Cl.Cl    52

The measured Population Hoechst High Intensity Objects (%) associated with CCCCCCNC(=O)Nc1ccc(S(=O)(=O)Nc2ccc(CCNC[C@H](O)COc3ccc(O)cc3)cc2)cc1 [L-755507] reads 6

For record CN(C)C(=O)Cn1cc(-c2ccc(-c3nnc4ccccn34)cc2)cn1 the listed Population Hoechst High Intensity Objects (%) is 2

Form field Population Hoechst High Intensity Objects (%), entry Cl.Cl.OCCOCCN1CCN(C(c2ccccc2)c2ccc(Cl)cc2)CC1 (centres undefined) [HYDROXYZINE HYDROCHLORIDE] : 4

The value of Population Hoechst High Intensity Objects (%) measured for the compound COc1ccc2[nH]c(I)c(CCNC(C)=O)c2c1 [IODOMELATONIN] turned out to be 7

The reported Population Hoechst High Intensity Objects (%) of the compound CN1CCN(c2ccc(Nc3c4ccccc4nc4ccccc34)cc2)CC1.Cl.Cl.O was 45

Input COc1cc(OC2CCN(C(C)=O)CC2)ccc1C(=O)N1CCC(N2C(=O)OCc3ccccc32)CC1 . Output Population Hoechst High Intensity Objects (%): 5

----------
The following molecules are shown together with reported Population Mitochondria Different-Phenotype (%) values.
- System: U2OS
- ASSAY_REMARKS: Multiplex assay against U2OS
- Assay type: toxicity, cell-based
- CONDITION_LABEL: human, 24 h, 1 µM, compound concentration 1 uM, replicate 2
I only need the number, in %, no unit after it.

Use the examples below as a reference point.
COCCCN1CCC(NC(=O)c2cc(Cl)c(N)c3c2OCC3)CC1 [PRUCALOPRIDE]    4
O=C(NCCNCC(O)COc1ccc(O)cc1)N1CCOCC1.O=C(NCCNCC(O)COc1ccc(O)cc1)N1CCOCC1.O=C(O)/C=C/C(=O)O (centres undefined) [XAMOTEROL FUMARATE]    4
N[C@](CC1c2ccccc2Oc2ccccc21)(C(=O)O)[C@H]1C[C@@H]1C(=O)O    5

Turning now to a further molecule:
Sure, the documented Population Mitochondria Different-Phenotype (%) for O=c1ccc2ccc(OCCCCN3CCN(c4cccc5sccc45)CC3)cc2[nH]1 is 28

----------
- Test system: Fibroblast
- ASSAY_REMARKS: Multiplex assay against human fibroblast
- Type: toxicity, cell-based
- CONDITION_LABEL: 12 h, 1 µM, compound concentration 1 uM, replicate 2
Catalogue of Total Cell Count values
# output: bare number, no unit

See these solved cases before continuing.
COCCn1c(C)c(C)s/c1=N\C(=O)C1C(C)(C)C1(C)C    133
CCCCCCNC(=O)Nc1ccc(S(=O)(=O)Nc2ccc(CCNC[C@H](O)COc3ccc(O)cc3)cc2)cc1    160
COCCCN1CCC(NC(=O)c2cc(Cl)c(N)c3c2OCC3)CC1 [PRUCALOPRIDE]    130
C=CCN1C[C@H](C(=O)N(CCCN(C)C)C(=O)NCC)C[C@@H]2c3cccc4[nH]cc(c34)C[C@H]21    144
CN1C[C@H](C(=O)N[C@]2(C)O[C@@]3(O)[C@@H]4CCCN4C(=O)[C@H](Cc4ccccc4)N3C2=O)C[C@@H]2c3cccc4[nH]cc(c34)C[C@H]21.CS(=O)(=O)O [DIHYDROERGOTAMINE MESYLATE]    155
COc1cc2nc(N3CCN(C(=O)c4ccco4)CC3)nc(N)c2cc1OC.Cl [PRAZOSIN HYDROCHLORIDE]    194

Turning now to a further compound:
For this compound ( N[C@](CC1c2ccccc2Oc2ccccc21)(C(=O)O)[C@H]1C[C@@H]1C(=O)O ), measured Total Cell Count is 113
